Measured IC50 on Eukaryotic translation initiation factor 4E (Homo sapiens) follows.
Sequence (P06730 whole entry): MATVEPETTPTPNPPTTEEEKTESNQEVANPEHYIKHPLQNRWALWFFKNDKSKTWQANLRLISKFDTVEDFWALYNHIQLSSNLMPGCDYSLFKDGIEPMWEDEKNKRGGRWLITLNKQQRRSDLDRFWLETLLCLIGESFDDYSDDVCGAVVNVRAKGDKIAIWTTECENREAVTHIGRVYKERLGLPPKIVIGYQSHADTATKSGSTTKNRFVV
Quantity Name: IC50 (µM)

Cc1nc2cnc(N3CC4(C3)CN(C3CCC3)C4)c(C#N)c2c(=O)n1CCOc1ccc(Cl)cc1-c1ccnc2c(C(=O)O)csc12 [US11286268, Compound 1437]    0.0373

A: N#Cc1ccc(OCCn2cnc3cnc(C#N)cc3c2=O)c(-c2cccc(C(=O)O)c2)c1 [US11286268, Compound 2026]
B: Cc1nc2cnc(N3CCN(C4CC4)C(C(F)F)C3)c(C#N)c2c(=O)n1CCOc1ccc(Cl)cc1-c1ccnc2c(C(=O)O)csc12 (stereo not drawn) [US11286268, Compound 1439]
q: Between item A and item B , which reported IC50 is smaller? Please identify the chosen entry by its label.
a: B
